- Tested on: PC9 cells (SM)
- procedureDetails: PC-9 growth inhibition assay (cell proliferation), Method B
- Format: cell-based, human
- conditionLabel: Homo sapiens, PC-9, 72 h, cellular proliferation, several runs
- Procedure: Cell Proliferation Assays—Method B Test compounds were dissolved in DMSO at 30 mM. The final concentration was 1,000 cells/well. Add medium only as low control. […] 5% CO2 incubator for 72 hours. After 72 hours incubation, remove the plates from incubator and equilibrate at room temperature for 15 minutes. […] To determine the cell viability, add 40 μL of CellTiter-Glo reagent into each well to be detected (at 1:1 to culture medium). […]
assayReadout: IC50 (nM)
Field: numeric (nM). Do not append units.

Enquiry: Kindly state the measured IC50 obtained for C=CC(=O)Nc1cc(Nc2nccc(-n3cc(-c4cn[nH]c4)c4ccccc43)n2)c(OC)cc1N(C)CCN(C)C with PC9 cells (SM).
Return: 27.9

Enquiry: Then this compound: C=CC(=O)Nc1cc(Nc2nccc(-n3cc(C(=O)NC)c4ncccc43)n2)c(OC)cc1N(C)CCN(C)C
Return: 1.51

Enquiry: Then this compound: C=CC(=O)Nc1cc(Nc2nccc(-c3cc(C#N)c4[nH]cc(C)c4c3)n2)c(OC)cc1N(C)CCN(C)C
Return: 2.07

Enquiry: Then this compound: C=CC(=O)Nc1cc(Nc2ncc(Cl)c(-c3cnc(NC)c(C(C)=O)c3)n2)c(OC)cc1N(C)CCN(C)C
Return: 5.79

###

Give half-life for every item shown.
- procedureDetails: Mouse in vivo PK study
- conditionLabel: mouse, plasma; male CDI mice, IV 1 mg/kg; read-out: T1/2 (IV) (converted)
Counter-ions that a name gives are not always drawn.
Field: numeric (h). Do not append units.

Enquiry: # get_value(readout='half-life', item= C=CC(=O)Nc1cc(Nc2nccc(-n3nc(N(C)C)c4ccccc43)n2)c(OC)cc1N(C)CCN(C)C )
Return: 1.32

Enquiry: Then this compound: C=CC(=O)Nc1cc(Nc2nccc(-n3nc(NC)c4ccccc43)n2)c(OC)cc1N(C)CCN(C)C
Return: 0.73

Enquiry: Then this compound: C=CC(=O)Nc1cc(Nc2nccc(-c3cc(C(N)=O)cc4c3ccn4C)n2)c(OC)cc1N(C)CCN(C)C [Example 34, hydrochloride]
Return: 1.11

###

- procedureDetails: Mouse in vivo PK study
- conditionLabel: mouse, plasma; male CDI mice, PO 10 mg/kg
- Excerpt: To determine the drug concentration in plasma of NJB-342, NJB-348 and NJB-463 following intravenous and oral administration in male CDI Mice, to get the pharmacokinetic profile and PK parameters Test animals: healthy male CDI mice (body weight 20-30 g, 18 mice, free access to food and water), provided by Sibeifu laboratory. […]
Where a name gives a salt, the structure may show the parent alone.
Give AUC for every item shown.
Field: numeric (ng·h/mL). Do not append units.

Enquiry: # get_value(readout='AUC', item= C=CC(=O)Nc1cc(Nc2nccc(-n3nc(N(C)C)c4ccccc43)n2)c(OC)cc1N(C)CCN(C)C )
Return: 677

Enquiry: Then this molecule: C=CC(=O)Nc1cc(Nc2nccc(-n3nc(NC)c4ccccc43)n2)c(OC)cc1N(C)CCN(C)C
Return: 282

Enquiry: Then this molecule: C=CC(=O)Nc1cc(Nc2nccc(-c3cc(C(N)=O)cc4c3ccn4C)n2)c(OC)cc1N(C)CCN(C)C [Example 34, hydrochloride]
Return: 165
